[
  {
    "molecule": "COc1ccc(C(=O)OCC2OC(OCc3ccc(Cl)c(NC(C)=O)c3)C(O)C(O)C2OC2OC3COC(c4ccccc4)OC3C(O)C2O)cc1 (stereo not shown)",
    "melting point": "> 117 °C (dec.)"
  },
  {
    "molecule": "CC(=O)Nc1cc(COC2OC(COC(=O)C(c3ccccc3)c3ccccc3)C(OC3OC4COC(c5ccccc5)OC4C(O)C3O)C(O)C2O)ccc1Cl (stereo not shown)",
    "melting point": "> 106 °C (dec.)"
  },
  {
    "molecule": "CC(=O)Nc1cc(COC2OC(COC(=O)C(c3ccccc3)c3ccccc3)C(OC3OC4COC(c5ccccc5)OC4C(OC(C)=O)C3OC(C)=O)C(OC(C)=O)C2OC(C)=O)ccc1Cl (stereo not shown)",
    "melting point": "> 99 °C (dec.)"
  },
  {
    "molecule": "COc1ccc(CC(=O)OCC2OC(OCc3ccc(Cl)c(NC(C)=O)c3)C(OC(C)=O)C(OC(C)=O)C2OC2OC3COC(c4ccccc4)OC3C(OC(C)=O)C2OC(C)=O)cc1OC (stereo not shown)",
    "melting point": "> 98 °C (dec.)"
  },
  {
    "molecule": "COc1ccc(CC(=O)OCC2OC(OCc3ccc(Cl)c(NC(C)=O)c3)C(O)C(O)C2OC2OC3COC(c4ccccc4)OC3C(O)C2O)cc1OC (stereo not shown)",
    "melting point": "> 116 °C (dec.)"
  },
  {
    "molecule": "COc1ccc(C(=O)OCC2OC(OCc3ccc(Cl)c(NC(C)=O)c3)C(OC(C)=O)C(OC(C)=O)C2OC2OC3COC(c4ccccc4)OC3C(OC(C)=O)C2OC(C)=O)cc1 (stereo not shown)",
    "melting point": "> 110 °C (dec.)"
  },
  {
    "molecule": "O=C(OCC1OC(OCc2ccc(Cl)c([N+](=O)[O-])c2)C(O)C(O)C1OC1OC2COC(c3ccccc3)OC2C(O)C1O)c1cccnc1 (stereo not shown)",
    "melting point": "> 105 °C (dec.)"
  },
  {
    "molecule": "CC(=O)Nc1cc(COC2OC(COC(=O)c3ccc(Cl)cc3)C(OC3OC4COC(c5ccccc5)OC4C(O)C3O)C(O)C2O)ccc1Cl (stereo not shown)",
    "melting point": "> 113 °C (dec.)"
  },
  {
    "molecule": "CC(=O)Nc1cc(COC2OC(COC(=O)c3ccc(Cl)cc3)C(OC3OC4COC(c5ccccc5)OC4C(OC(C)=O)C3OC(C)=O)C(OC(C)=O)C2OC(C)=O)ccc1Cl (stereo not shown)",
    "melting point": "114 to 115 °C"
  },
  {
    "molecule": "CC(=O)Nc1cc(COC2OC(COC(=O)c3cccnc3)C(OC3OC4COC(c5ccccc5)OC4C(OC(C)=O)C3OC(C)=O)C(OC(C)=O)C2OC(C)=O)ccc1Cl (stereo not shown)",
    "melting point": "> 112 °C (dec.)"
  }
]

====

system: Porcine Smooth Muscle Cell; assay: Effects of Compounds on Cell Proliferation Using 3H Thymidine Incorporation; type: cell-based; conditions: Sus scrofa, serum/growth factor stimulated cells, 24-36 h incubation, read-out: Porcine Smooth Muscle Cell Antiproliferation IC50
So basically, if IC50 comes in under 90 nM it's T, and if it's 90 nM or more it's F.

[
  {
    "compound": "CC(=O)Nc1cc(COC2OC(COC(=O)c3cccnc3)C(OC3OC4COC(c5ccccc5)OC4C(OC(C)=O)C3OC(C)=O)C(OC(C)=O)C2OC(C)=O)ccc1Cl (stereo not shown)",
    "study_target": "Porcine Smooth Muscle Cell",
    "assigned_category": "F"
  },
  {
    "compound": "COc1ccc(C(=O)OCC2OC(OCc3ccc(Cl)c(NC(C)=O)c3)C(O)C(O)C2OC2OC3COC(c4ccccc4)OC3C(O)C2O)cc1 (stereo not shown)",
    "study_target": "Porcine Smooth Muscle Cell",
    "assigned_category": "T"
  },
  {
    "compound": "COc1ccc(CC(=O)OCC2OC(OCc3ccc(Cl)c(NC(C)=O)c3)C(O)C(O)C2OC2OC3COC(c4ccccc4)OC3C(O)C2O)cc1OC (stereo not shown)",
    "study_target": "Porcine Smooth Muscle Cell",
    "assigned_category": "T"
  },
  {
    "compound": "CC(=O)Nc1cc(COC2OC(COC(=O)C(c3ccccc3)c3ccccc3)C(OC3OC4COC(c5ccccc5)OC4C(OC(C)=O)C3OC(C)=O)C(OC(C)=O)C2OC(C)=O)ccc1Cl (stereo not shown)",
    "study_target": "Porcine Smooth Muscle Cell",
    "assigned_category": "F"
  },
  {
    "compound": "COc1ccc(CC(=O)OCC2OC(OCc3ccc(Cl)c(NC(C)=O)c3)C(OC(C)=O)C(OC(C)=O)C2OC2OC3COC(c4ccccc4)OC3C(OC(C)=O)C2OC(C)=O)cc1OC (stereo not shown)",
    "study_target": "Porcine Smooth Muscle Cell",
    "assigned_category": "F"
  },
  {
    "compound": "COc1ccc(C(=O)OCC2OC(OCc3ccc(Cl)c(NC(C)=O)c3)C(OC(C)=O)C(OC(C)=O)C2OC2OC3COC(c4ccccc4)OC3C(OC(C)=O)C2OC(C)=O)cc1 (stereo not shown)",
    "study_target": "Porcine Smooth Muscle Cell",
    "assigned_category": "F"
  }
]

====

test system: Porcine Smooth Muscle Cell; assay: Effects of Compounds on Cell Proliferation Using 3H Thymidine Incorporation; assay type: cell-based; conditions: Sus scrofa, serum/growth factor stimulated cells, 24-36 h incubation, read-out: Porcine Smooth Muscle Cell Antiproliferation IC50
metric_name: IC50 (nM)

[
  {
    "compound": "O=C(OCC1OC(OCc2ccc(Cl)c([N+](=O)[O-])c2)C(O)C(O)C1OC1OC2COC(c3ccccc3)OC2C(O)C1O)c1cccnc1 (stereo not drawn)",
    "study_target": "Porcine Smooth Muscle Cell",
    "measured_number": 405
  },
  {
    "compound": "CC(=O)Nc1cc(COC2OC(COC(=O)C(c3ccccc3)c3ccccc3)C(OC3OC4COC(c5ccccc5)OC4C(O)C3O)C(O)C2O)ccc1Cl (stereo not drawn)",
    "study_target": "Porcine Smooth Muscle Cell",
    "measured_number": 84
  },
  {
    "compound": "CC(=O)Nc1cc(COC2OC(COC(=O)c3ccc(Cl)cc3)C(OC3OC4COC(c5ccccc5)OC4C(OC(C)=O)C3OC(C)=O)C(OC(C)=O)C2OC(C)=O)ccc1Cl (stereo not drawn)",
    "study_target": "Porcine Smooth Muscle Cell",
    "measured_number": 588
  }
]
